The reported numbers originate from PubChem BioAssay (NCI).

# Assay Details: NCI Yeast Anticancer Drug Screen. Data for the bub3 strain (AID 167)
# Experimental Context: S. cerevisiae bub3 mutant strain, at 50.0 µM, active compounds read high
The panel holds about 79,000 compounds, 15% with a hit somewhere; the sample as a whole holds those more often.
Test Readout: growth inhibition (%)
Kindly answer with a numeric value in %, unit omitted.

Here's what some known entries look like.
C[Si](C)(C)C1=C([Si](C)(C)C)C(Cl)(Cl)C1=O	29.2
Fc1ccc2[nH]ccc2c1	62.3
Nc1ccc(C(=O)Nc2ccc(C(=O)Nc3ccc(/C=C/c4ccc(NC(=O)c5ccc(N)cc5)cc4S(=O)(=O)O)c(S(=O)(=O)O)c3)cc2)cc1	70.4
COc1cc(C2c3cc4c(cc3OC3(O)C=C(C)OC(=O)C23)OCO4)cc(OC)c1OC (centres undefined)	92.3
CC1=C(C(=O)Nc2ccccc2Cl)C(c2cccc([N+](=O)[O-])c2)C(C(=O)Nc2ccccc2Cl)=C(C)N1	27.9
CN(C)C(=S)SC1(CN2CCOCC2)COc2c(Cl)cc(Cl)cc2C1=O (centres undefined)	79.3
COC1=C(/C(=N/Nc2ccc([N+](=O)[O-])cc2[N+](=O)[O-])c2ccccc2)COC1=O	93.3
CS(=O)(=O)OCCN(CCOS(C)(=O)=O)c1ccc(C=Nc2ccc3oc(=O)ccc3c2)cc1	40.1

We now examine a further compound.
Qu. Recall and state the measured growth inhibition for COC(=O)C1(c2ccc(N(C)C)cc2OC)CCCN(C(=O)Oc2ccccc2[N+](=O)[O-])CCc2c1[nH]c1ccccc21 (centres undefined) .
Ans. 42

---

Below is a list of entries, each paired with its recorded growth inhibition value.
# Assay Details: NCI Yeast Anticancer Drug Screen. Data for the rad50 strain (AID 155);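 also: 0% = growth of vehicle-only cultures of the same strain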
# Experimental Context: S. cerevisiae rad50 strain growth inhibition; at 50.0 µM (retest, dose inferred, filed as 5.0); active compounds read high
# Experimental: Growth inhibition of yeast strains with defined genetic alterations is measured as a screen for potential anti-cancer activity. Selected strains with alterations in DNA damage repair or cell cycle control were exposed to compounds and growth inhibition was measured relative to vehicle treated controls. The strain used in this assay is rad50
Compounds without any hit were thinned out: in the full panel of roughly 79,000, 15% have a hit.
Answer format: numeric, % implied, no suffix.

CC(C)(C)NC(=S)N/N=C/c1cc(Cl)cc(Cl)c1O	72

Qu. Input Cc1cc(C2C(O)C(c3cc(C)on3)C2(C)O)no1 (stereo unspecified) , output reported growth inhibition.
Ans. 0

Qu. Provide growth inhibition value for the following molecule: CCS(=O)(=O)c1ccc(NC(=O)OC2CC(C)CCC2C(C)C)cc1 (stereo unspecified)
Ans. 90

Qu. Output growth inhibition of CSCCC(NC(=O)C(CCSC)NS(=O)(=O)Cc1ccccc1)C(=O)O (stereo unspecified)
Ans. -4

Qu. Given CC(C)C(=O)[O][Bi]([c]1ccccc1)[c]1ccccc1 , respond with its growth inhibition.
Ans. 92

---

# Assay Details: NCI Yeast Anticancer Drug Screen. Data for the sgs1 mgt1 strain (AID 161);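 also: 0% = growth of cultures given vehicle only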
# Experimental Context: S. cerevisiae sgs1 mgt1 strain, at 5.0 µM (retest, dose inferred, filed as 0.5)
This is part of a sample that, as a whole, favours compounds with a hit. Of some 79,000 tested, about 15% had one in any assay. The source made the active and inactive calls. No stated cut-off is given here; in the data, active means growth inhibition above about 70%; inactive means the rest.
Use one of these outcomes when replying: class 1 = active, class 0 = inactive

N#CC1=CN(Cc2ccccc2)C(C#Cc2ccccc2)C=C1 (stereo not drawn)	class 0
CC(=O)C(C(=O)CCSCCO)C(SCCO)c1ccc(Cl)c(Cl)c1 (stereo not drawn)	class 0
CCOC(=O)c1cc(C)ccc1-c1ccc(C)cc1C(=O)OCC	class 0
COc1ccc(C2CC(c3c(O)ccc4ccccc34)=NN2)cc1OC (stereo not drawn)	class 0
CC(=O)NNc1nc(C)c(C(=O)NNC(=O)C(=O)Nc2ccc(Cl)c([N+](=O)[O-])c2)s1	class 0
O=[N+]([O-])c1ccccc1N=Nc1c(O)[nH]c2cccc(C(F)(F)F)c12	class 0
Cc1ccc(O)c(Cc2cccc(Cl)c2)c1	class 0
O=[N+]([O-])c1ccc(S(=O)/N=C/c2ccccc2)c([N+](=O)[O-])c1 (stereo not drawn)	class 0
CC(C)(C)NC(=S)N/N=C/c1cc(Cl)cc(Cl)c1O	class 1
CCCCCCC/C=C/C(=O)OC1C(OC2C(OC(CCCCCCC)CC(=O)OC(CCCCCCC)CC(=O)O)OC(C)C(O)C2O)OC(C)C(O)C1O (stereo not drawn)	class 0

Qu. Write down the call the test reported for this compound. Item: CCCCCCCCCCN1Cc2ccccc2C1
Ans. class 1

Qu. # outcome recorded in this test, key = COC(=O)CC1C(=O)OCc2c1cc1n(c2=O)Cc2c-1nc1ccccc1c2OC (stereo not drawn)
Ans. class 0
